B1: PhoQ; a variant is named by its letters at X, in order, P23837 (parent)
chain: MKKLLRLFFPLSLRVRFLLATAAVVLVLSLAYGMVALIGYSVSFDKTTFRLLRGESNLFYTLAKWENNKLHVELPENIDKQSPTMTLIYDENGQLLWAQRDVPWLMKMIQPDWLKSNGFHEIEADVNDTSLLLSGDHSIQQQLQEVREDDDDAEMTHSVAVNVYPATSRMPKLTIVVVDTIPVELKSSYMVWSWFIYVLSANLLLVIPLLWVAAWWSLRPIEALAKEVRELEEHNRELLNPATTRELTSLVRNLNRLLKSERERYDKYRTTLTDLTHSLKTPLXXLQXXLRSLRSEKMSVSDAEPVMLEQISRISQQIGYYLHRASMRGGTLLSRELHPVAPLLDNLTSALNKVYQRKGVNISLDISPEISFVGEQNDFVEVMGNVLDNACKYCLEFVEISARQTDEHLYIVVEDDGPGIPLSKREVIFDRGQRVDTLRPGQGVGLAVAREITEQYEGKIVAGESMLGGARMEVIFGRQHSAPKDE

Variants of: B1
assay-procedure: enrichment ratio after two sorts for PhoP signalling (ratio (wild type AVST 3.29)); higher = more functional
run-parameters: with PhoP (E. coli)
Whole data set: some 140,000 sequences, median “enrichment ratio after two sorts for PhoP signalling” near 0, cut for the highest 2% near 11. For the sample, the highest values were picked, then their nearest neighbours and some sequences at random.
Listed here are variants together with their documented enrichment ratio.

Some variants with known enrichment ratio results, for comparison:
variant_notation=QRCP value_reported="≤ 0.25"
variant_notation=DMLG value_reported="≤ 0.25"
variant_notation=QHRI value_reported="≤ 0.25"
variant_notation=SMWE value_reported="≤ 0.25"
variant_notation=NFHN value_reported="≤ 0.25"

Shifting focus to the variant that follows.
enrichment ratio reported for this variant ELII : ≤ 0.25
